combination Emax values for the molecules below.
System: SU-DHL-5 (B-Cell Non-Hodgkin's Lymphoma)
measurementNotes: combination Emax (second highest fraction inhibited in the dose matrix, 72 h); higher = more inhibition; extreme values may be limits of the assay

| molecule | combination Emax |
| --- | --- |
| C[C@@H](c1ccc2nccn2c1)n1nnc2ncc(-c3cnn(C)c3)nc21 [Savolitinib] + Cc1c2c(nn1C)CSCc1cc(n(C)n1)CSc1cc(c3ccccc3c1)OCCCc1c(C(=O)O)n(C)c3c-2c(Cl)ccc13 [AZD5991] (first compound max 1 µM, 7x7, partner max 1 µM) | 1 |
| CN(CCO)CC[C@H](CSc1ccccc1)Nc1ccc(S(=O)(=O)NC(=O)c2ccc(N3CCC([C@@H](O)c4ccccc4-c4ccc(Cl)cc4)CC3)cc2)cc1S(=O)(=O)C(F)(F)F [AZD4320] + C1CN(CCC1(C(=O)N[C@@H](CCO)C2=CC=C(C=C2)Cl)N)C3=NC=NC4=C3C=CN4 [Capivasertib] (first compound max 1 µM, 7x7, partner max 3 µM) | 0.956 |

====

combination Emax values for the molecules below.
Test system: VMRC-RCZ (Kidney Carcinoma)
measurementNotes: combination Emax (second highest fraction inhibited in the dose matrix, 72 h); higher = more inhibition; extreme values may be limits of the assay
measure: combination Emax

| molecule | endpointResult |
| --- | --- |
| Cn1cnc2c(F)c(Nc3ccc(Br)cc3Cl)c(C(=O)NOCCO)cc21 [Selumetinib] + CCN(CCO)CCCOc1ccc2c(Nc3cc(CC(=O)Nc4cccc(F)c4)[nH]n3)ncnc2c1 [AZD2811] (first compound max 10 µM, 7x7, partner max 1 µM) | 0.152 |
| C[C@@H]1COCCN1c1cc(C2([S@](C)(=N)=O)CC2)nc(-c2ccnc3[nH]ccc23)n1 [AZD6738] + C1CC(C1)(C(=O)[O-])C(=O)[O-].N.N.[Pt+2] [Carboplatin] (first compound max 10 µM, 7x7, partner max 10 µM) | 0.392 |
| Cc1c2c(nn1C)CSCc1cc(n(C)n1)CSc1cc(c3ccccc3c1)OCCCc1c(C(=O)O)n(C)c3c-2c(Cl)ccc13 [AZD5991] + CC1(C)CCC(CN2CCN(c3ccc(C(=O)NS(=O)(=O)c4ccc(NCC5CCOCC5)c([N+](=O)[O-])c4)c(Oc4cnc5[nH]ccc5c4)c3)CC2)=C(c2ccc(Cl)cc2)C1 [Venetoclax] (first compound max 1 µM, 7x7, partner max 1 µM) | 0.21 |
| Cc1c2c(nn1C)CSCc1cc(n(C)n1)CSc1cc(c3ccccc3c1)OCCCc1c(C(=O)O)n(C)c3c-2c(Cl)ccc13 [AZD5991] + Cc1cc2ncnn2cc1Nc1ncc2c(n1)n(C1CCOCC1)c(=O)n2C [AZD7648] (first compound max 1 µM, 7x7, partner max 10 µM) | 0.191 |

====

System: KY821 (Acute Myeloid Leukemia);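 also: after 72 h of two-drug dosing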
measurementNotes: Bliss excess, mean over the matrix (fraction); higher = more synergy
Please use YES whenever Bliss excess is not below 0.006, and NO whenever it is.

| compound | assignedLabel |
| --- | --- |
| CN(CCO)CC[C@H](CSc1ccccc1)Nc1ccc(S(=O)(=O)NC(=O)c2ccc(N3CCC([C@@H](O)c4ccccc4-c4ccc(Cl)cc4)CC3)cc2)cc1S(=O)(=O)C(F)(F)F [AZD4320] + C1CN(CCC1(C(=O)N[C@@H](CCO)C2=CC=C(C=C2)Cl)N)C3=NC=NC4=C3C=CN4 [Capivasertib] (first compound max 1 µM, 7x7, partner max 3 µM) | YES |
| CN(CCO)CC[C@H](CSc1ccccc1)Nc1ccc(S(=O)(=O)NC(=O)c2ccc(N3CCC([C@@H](O)c4ccccc4-c4ccc(Cl)cc4)CC3)cc2)cc1S(=O)(=O)C(F)(F)F [AZD4320] + CCN(CCO)CCCOc1ccc2c(Nc3cc(CC(=O)Nc4cccc(F)c4)[nH]n3)ncnc2c1 [AZD2811] (first compound max 1 µM, 7x7, partner max 1 µM) | YES |
| C[C@@H](c1ccc2nccn2c1)n1nnc2ncc(-c3cnn(C)c3)nc21 [Savolitinib] + CC1(C)CCC(CN2CCN(c3ccc(C(=O)NS(=O)(=O)c4ccc(NCC5CCOCC5)c([N+](=O)[O-])c4)c(Oc4cnc5[nH]ccc5c4)c3)CC2)=C(c2ccc(Cl)cc2)C1 [Venetoclax] (first compound max 1 µM, 7x7, partner max 1 µM) | NO |
| COc1nnc2ccc(N3CCC(c4ccc(OCCN5CCN(C)C(=O)[C@H]5C)cc4)CC3)nn12 [AZD5153] + C[C@@H]1COCCN1C2=NC(=NC(=C2)C3(CC3)[S@](=N)(=O)C)C4=C5C=CNC5=NC=C4 [AZD6738] (first compound max 1 µM, 7x7, partner max 10 µM) | NO |
| COc1cccc(OCCCN)c1-c1cc(Nc2cnc(C#N)cn2)n[nH]1 [Prexasertib] + C[C@@H]1COCCN1C2=NC(=NC(=C2)C3(CC3)[S@](=N)(=O)C)C4=C5C=CNC5=NC=C4 [AZD6738] (first compound max 1 µM, 7x7, partner max 10 µM) | NO |
| CS(=O)(=O)CCNCc1ccc(-c2ccc3ncnc(Nc4ccc(OCc5cccc(F)c5)c(Cl)c4)c3c2)o1 [Lapatinib] + C[C@@H](Oc1cc(-c2cnn(C3CCNCC3)c2)cnc1N)c1c(Cl)ccc(F)c1Cl [Crizotinib] (first compound max 10 µM, 7x7, partner max 10 µM) | YES |
| COc1nnc2ccc(N3CCC(c4ccc(OCCN5CCN(C)C(=O)[C@H]5C)cc4)CC3)nn12 [AZD5153] + CC1(C)CCC(CN2CCN(c3ccc(C(=O)NS(=O)(=O)c4ccc(NCC5CCOCC5)c([N+](=O)[O-])c4)c(Oc4cnc5[nH]ccc5c4)c3)CC2)=C(c2ccc(Cl)cc2)C1 [Venetoclax] (first compound max 1 µM, 7x7, partner max 1 µM) | NO |
| CN(CCO)CC[C@H](CSc1ccccc1)Nc1ccc(S(=O)(=O)NC(=O)c2ccc(N3CCC([C@@H](O)c4ccccc4-c4ccc(Cl)cc4)CC3)cc2)cc1S(=O)(=O)C(F)(F)F [AZD4320] + CN(C)CCCOc1ccc(-c2ccc3ncc4c(c3c2)n(C2CCOCC2)c(=O)n4C)cn1 [AZD0156] (first compound max 1 µM, 7x7, partner max 1 µM) | NO |
| Cc1cc2ncnn2cc1Nc1ncc2c(n1)n(C1CCOCC1)c(=O)n2C [AZD7648] + O=C(c1cc(Cc2n[nH]c(=O)c3ccccc23)ccc1F)N1CCN(C(=O)C2CC2)CC1 [Olaparib] (first compound max 10 µM, 7x7, partner max 10 µM) | NO |
| Cn1cnc2c(F)c(Nc3ccc(Br)cc3Cl)c(C(=O)NOCCO)cc21 [Selumetinib] + CCN(CCO)CCCOc1ccc2c(Nc3cc(CC(=O)Nc4cccc(F)c4)[nH]n3)ncnc2c1 [AZD2811] (first compound max 10 µM, 7x7, partner max 1 µM) | YES |
| Cn1cnc2c(F)c(Nc3ccc(Br)cc3Cl)c(C(=O)NOCCO)cc21 [Selumetinib] + C[C@@H]1COCCN1C2=NC(=NC(=C2)C3(CC3)[S@](=N)(=O)C)C4=C5C=CNC5=NC=C4 [AZD6738] (first compound max 10 µM, 7x7, partner max 10 µM) | NO |
| Cc1cc2ncnn2cc1Nc1ncc2c(n1)n(C1CCOCC1)c(=O)n2C [AZD7648] + CN(C)CCCOc1ccc(-c2ccc3ncc4c(c3c2)n(C2CCOCC2)c(=O)n4C)cn1 [AZD0156] (first compound max 10 µM, 7x7, partner max 1 µM) | YES |
| CC1(C)CCC(CN2CCN(c3ccc(C(=O)NS(=O)(=O)c4ccc(NCC5CCOCC5)c([N+](=O)[O-])c4)c(Oc4cnc5[nH]ccc5c4)c3)CC2)=C(c2ccc(Cl)cc2)C1 [Venetoclax] + Cc1cc2ncnn2cc1Nc1ncc2c(n1)n(C1CCOCC1)c(=O)n2C [AZD7648] (first compound max 1 µM, 7x7, partner max 10 µM) | YES |
